Procedure Details: chemical genetic growth profiling, strain panel (AID 1159580);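 also: tested at 20 µM; growth read once vehicle control cultures reached saturation at 30 °C; 1 = growth at the plate median or of vehicle wells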
Measurement Context: S. cerevisiae deletion strains, growth OD, locus YER016W, strain bim1, stronger effect = lower value
Screen size: about 5,500 compounds; about 2,000 (36%) were called active. Another 18% or so got no clear call; they are omitted. Some of the results follow. Where a SMILES comes first, the peptide text is derived from it. Bridges are numbered along the chain shown (N, C = ends). [ ]: non-standard residue; d: D form. The star is where a group is joined. ξ: configuration not given here. ξDab(CH2SO3H) = NC(CCNCS(=O)(=O)O)C(=O)O; Heptanoyl(6-Me) = CC(C)CCCCC(=O)*; Dab = NCC[CH](N)C(=O)O
Measurement Name: normalized growth
Kindly provide the number alone.

Please review the following examples before continuing.
* CCC(C)C(NC)C(=O)O (stereo not given) | 1.01
* OC(CCN1CCCC1)(c1ccccc1)C1CCCCC1 (stereo not given) | 0.998
* CC(=O)/C=C\[C@@H]1[C@@]2(C)CCCC(C)(C)C2CC[C@@]1(C)O (stereo not given in full) | 0.982
* CCC(C)C1NC(=O)C(CCNCS(=O)(=O)O)NC(=O)C(NC(=O)C(CCNCS(=O)(=O)O)NC(=O)C(NC(=O)C(CCNCS(=O)(=O)O)NC(=O)CCCCC(C)C)C(C)O)CCNC(=O)C(C(C)O)NC(=O)C(CCNCS(=O)(=O)O)NC(=O)C(CCNCS(=O)(=O)O)NC(=O)C(C(C)CC)NC1=O (stereo not given) ({Heptanoyl(6-Me)}-[ξDab(CH2SO3H)]T[ξDab(CH2SO3H)][Dab][ξDab(CH2SO3H)]II[ξDab(CH2SO3H)][ξDab(CH2SO3H)]T; lactam 4-C; configuration not given here) | 0.997

// next entry
Prompt: Would you kindly share the measured normalized growth for OC(CCN1CCCCC1)(c1ccccc1)C1CCCCC1 (stereo not given) ?
Completion: 1

###

Procedure Details: chemical genetic growth profiling, strain panel (AID 1159580)
Measurement Context: S. cerevisiae deletion strains, growth OD, locus YNL153C, strain GIM3, stronger effect = lower value
Screen size: about 5,500 compounds; about 2,000 (36%) were called active. Not shown: some 18% with an inconclusive outcome. The list shows a part of the results.
As shown below, each of these molecules has a reported normalized growth value.
Kindly provide the number alone.

Prompt: Would you kindly share the measured normalized growth for COc1ccccc1C1OC(=O)CC1C(=O)O (stereo unspecified) ?
Completion: 1

###

Procedure Details: chemical genetic growth profiling, strain panel (AID 1159580)
Measurement Context: S. cerevisiae deletion strains, growth OD, locus YNL128W, strain TEP1, stronger effect = lower value
Out of some 5,500 compounds screened, about 2,000 (36%) were called active. About 18% were inconclusive and are not listed. The list shows a part of the results.
Measurement Name: normalized growth
Kindly provide the number alone.

Please review the following examples before continuing.
- COc1ccc2c3c([nH]c2c1)C(C)=NCC3: 1.01
- O=C1C(O)=C(O)C(=O)C(O)=C1O: 0.944
- COc1ccc2[nH]c3c(c2c1)CCNC3: 0.996
- NC(N)=[N+]1CCc2ccccc2C1: 0.992
- Cc1noc(C)c1-c1nc(-c2cc(C(F)(F)F)cc(C(F)(F)F)c2)no1: 1.02
- CC(=O)NC(C(=O)O)C(C)(C)SN=O (centres undefined): 1.03
- CCCCCCCCCCCC[C@H](C(=O)O)[C@@H](C)C(=O)O: 1.01
- Cc1noc(C)c1C(=O)N1CCN(c2ncc(C(F)(F)F)cc2Cl)CC1: 0.99

Prompt: Would you kindly share the measured normalized growth for Nc1c2c(nc3ccccc13)CCCC2O (centres undefined) ?
Completion: 1.02

Prompt: Would you kindly share the measured normalized growth for CCCCCc1ccc(C(=O)O/N=C\c2c(Cl)cccc2Cl)cc1 ?
Completion: 0.962

Prompt: Would you kindly share the measured normalized growth for Cn1c(CSCC(=O)Nc2ccccc2)n[nH]c1=S ?
Completion: 0.994

Prompt: Would you kindly share the measured normalized growth for C[C@@H]1C(=O)O[C@H]2[C@H]1CC[C@@]1(C)C=CC(=O)[C@@]3(C)O[C@@]213 ?
Completion: 1.03

Prompt: Would you kindly share the measured normalized growth for CN1C2CCC1CC(NC(=O)c1nn(C)c3ccccc13)C2 (centres undefined) ?
Completion: 0.987

Prompt: Would you kindly share the measured normalized growth for Cc1cccc(NC(=S)NC2CC3C=CC2C3)c1 (centres undefined) ?
Completion: 0.977

Prompt: Would you kindly share the measured normalized growth for COC1=C[C@@H]2[C@@H]3Cc4ccc(OC)c(O)c4[C@]2(CCN3C)CC1=O ?
Completion: 0.961

Prompt: Would you kindly share the measured normalized growth for O=C(O)CCCCCC[C@H]1C(=O)NC(=O)N1CC[C@@H](O)C1CCCCC1 ?
Completion: 0.942

Prompt: Would you kindly share the measured normalized growth for N[C@@H](Cc1c[nH]c2ccccc12)C(=O)O ?
Completion: 1

Prompt: Would you kindly share the measured normalized growth for COC(=O)/C(C)=C\CC12OC(C)(C)C3CC(C=C4C(=O)c5c(O)c6c(c(CCC(C)(C)Cl)c5OC431)OC1(C)CCC(=C(C)C)C6C1)C2=O (centres undefined) ?
Completion: 1.04

Prompt: Would you kindly share the measured normalized growth for COc1cc(C2OC(c3cc(C)ccc3[N+](=O)[O-])=NN2C(C)=O)cc(OC)c1OC (centres undefined) ?
Completion: 0.991

###

Procedure Details: chemical genetic growth profiling, strain panel (AID 1159580)
Measurement Context: S. cerevisiae deletion strains, growth OD, locus YLL026W, stronger effect = lower value
Out of some 5,500 compounds screened, about 2,000 (36%) were called active. Inconclusive results (about 18%) are left out. Some of the results follow.
Measurement Name: normalized growth
Kindly provide the number alone.

Prompt: Would you kindly share the measured normalized growth for C/C=C(/C)C(=O)OC1CCC2(C)C3CCC4C5(O)CC(O)C6(O)C(CN7CC(C)CCC7C6(C)O)C5(O)CC42OC13O (stereo not drawn) ?
Completion: 1

Prompt: Would you kindly share the measured normalized growth for COC(=O)C[C@H]1C(C)(C)C2(O)OC34CC2C(=O)[C@]1(C)C3CC[C@]1(C)C4=CC(=O)O[C@H]1c1ccoc1 (stereo partly drawn) ?
Completion: 0.998

Prompt: Would you kindly share the measured normalized growth for C#C[C@]1(O)CCC2C3CCC4=CC(=O)CC[C@@H]4C3CC[C@@]21CC (stereo partly drawn) ?
Completion: 1

Prompt: Would you kindly share the measured normalized growth for O=C(CNC(=O)c1ccc(Cl)cc1)NO ?
Completion: 1.01

###

Procedure Details: chemical genetic growth profiling, strain panel (AID 1159580);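 also: tested at 20 µM; growth read once vehicle control cultures reached saturation at 30 °C; 1 = growth at the plate median or of vehicle wells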
Measurement Context: S. cerevisiae deletion strains, growth OD, locus YDR334W, strain swr1
The whole screen tested about 5,500 compounds, of which about 2,000 (36%) were called active. Roughly 18% stayed inconclusive and do not appear here. No stated cut-off is given here; in the data, active means normalized growth mostly below about 0.91 (no sharp cut-off); inconclusive means no clear call, values can overlap the other calls; inactive means mostly above about 0.92. This is one part of the list.
# valid calls are active, inactive; nothing else

Prompt: Identify the outcome logged in this assay for the compound shown: CC(C)(C#N)O[C@@H]1O[C@H](CO)[C@@H](O)[C@H](O)[C@H]1O
Completion: inactive

Prompt: Identify the outcome logged in this assay for the compound shown: CC(=O)NC(C(=O)O)C(C)(C)SN=O (configuration not stated)
Completion: inactive

###

Procedure Details: chemical genetic growth profiling, strain panel (AID 1159580);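 also: tested at 20 µM; growth read once vehicle control cultures reached saturation at 30 °C; 1 = growth at the plate median or of vehicle wells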
Measurement Context: S. cerevisiae deletion strains, growth OD, locus YNL250W, strain rad50, stronger effect = lower value
Out of some 5,500 compounds screened, about 2,000 (36%) were called active. Roughly 18% stayed inconclusive and do not appear here. The list shows a part of the results.
As shown below, each of these molecules has a reported normalized growth value.
Kindly provide the number alone.

Please review the following examples before continuing.
- Nc1ccccc1C(=O)CC(N)C(=O)O (configuration not stated): 0.935
- CC(C)=CCCC1(C)C=Cc2c(O)c3c(c(CC=C(C)C)c2O1)OC12C(=CC4CC1C(C)(C)OC2(C/C=C(/C)C(=O)O)C4O)C3=O (configuration not stated): 0.951
- Cc1cn([C@H]2C[C@H](N=[N+]=[N-])[C@@H](CO)O2)c(=O)[nH]c1=O: 1.02
- Fc1ccc(C(c2ccccc2)(c2ccccc2F)n2ccnc2)cc1 (configuration not stated): 0.133
- Cc1ccc(-c2cc(C(F)(F)F)nn2-c2ccc(S(N)(=O)=O)cc2)cc1: 1.02

Prompt: Would you kindly share the measured normalized growth for CCC(C)C(=O)O[C@H]1[C@H](O)C2C(CN3CC(C)CCC3[C@@]2(C)O)C2C[C@]34O[C@]5(O)C(OC(=O)C(C)(O)CC)CC[C@@]3(C)C5C(OC(C)=O)[C@@H](OC(C)=O)C4[C@@]21O (some centres not stated) ?
Completion: 0.984

Prompt: Would you kindly share the measured normalized growth for Cc1cc(C(C)(C)C)c(O)c(C(C)(C)C)c1 ?
Completion: 0.993

###

As shown below, each of these compounds has a reported normalized growth value.
Procedure Details: chemical genetic growth profiling, strain panel (AID 1159580);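 also: tested at 20 µM; growth read once vehicle control cultures reached saturation at 30 °C; 1 = growth at the plate median or of vehicle wells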
Measurement Context: S. cerevisiae deletion strains, growth OD, locus YPR111W, strain DBF20, stronger effect = lower value
The whole screen tested about 5,500 compounds, of which about 2,000 (36%) were called active. About 18% were inconclusive and are not listed. This is one part of the list.
Kindly provide the number alone.

Please review the following examples before continuing.
* O=S(=O)(c1ccc(Cl)cc1)N(Cc1cccnc1)Cc1ccc(Cl)cc1Cl | 0.975
* O=C(NCCc1ccncc1)c1ccc(Cl)c(Cl)c1 | 0.961
* S=C(NNC(=S)NC1CC2C=CC1C2)Nc1ccc(Br)c(Cl)c1 (stereo not given) | 0.983

Prompt: Would you kindly share the measured normalized growth for Nc1ccc(Sc2ccccc2)nc1Sc1ccccc1 ?
Completion: 0.926

Prompt: Would you kindly share the measured normalized growth for Clc1cc(Cl)cc(-c2nc(SCc3ccc(Cl)cc3Cl)n[nH]2)c1 ?
Completion: 0.948
